# Experimental Details: Cynomolgus monkeys: hematology assays (Example 29)
# Assay type: in vivo
# Measurement Context: day 22
In the oligonucleotide strings, read from the 5' end, every base follows the letter of its sugar. An asterisk marks phosphorothioate; unmarked linkages are phosphodiester. Other units and linkages are bracketed, terminal groups are in braces. A string of capitals states the bases alone. e = 2'-O-(2-methoxyethyl) (MOE); [5mC] = 5-methylcytosine; d = 2'-deoxy (DNA)
platelet count listing for selected substances.
Measure Name: platelet count (µL⁻¹)

| Substance | Units | Reported Result |
| --- | --- | --- |
| ISIS 416858: gapmer of Table 8 (antisense eA*e[5mC]*eG*eG*e[5mC]*dA*dT*dT*dG*dG*dT*dG*d[5mC]*dA*d[5mC]*eA*eG*eT*eT*eT) | µL⁻¹ | 316000 |
| ISIS 416850: gapmer of Table 8 (antisense eT*eG*e[5mC]*eA*e[5mC]*dA*dG*dT*dT*dT*d[5mC]*dT*dG*dG*d[5mC]*eA*eG*eG*e[5mC]*e[5mC]) | µL⁻¹ | 466000 |
| ISIS 416864: gapmer of Table 8 (antisense eG*eG*e[5mC]*eA*eG*d[5mC]*dG*dG*dA*d[5mC]*dG*dG*d[5mC]*dA*dT*eT*eG*eG*eT*eG) | µL⁻¹ | 364000 |
| ISIS 417002: gapmer of Table 8 (antisense eG*eG*dT*dG*d[5mC]*dA*d[5mC]*dA*dG*dT*dT*dT*d[5mC]*dT*dG*eG*e[5mC]*eA*eG*eG) | µL⁻¹ | 377000 |
| ISIS 416838: gapmer of Table 6 (antisense eG*e[5mC]*eA*eA*e[5mC]*d[5mC]*dG*dG*dG*dA*dT*dG*dA*dT*dG*eA*eG*eT*eG*e[5mC]) | µL⁻¹ | 319000 |

====

# System: human Factor XI mRNA
# Experimental Details: Dose-dependent inhibition in HepB3 cells, lipofectin (Example 7)
# Assay type: cell-based
# Measurement Context: 18.75 nM, approx. 16 h
Measure Name: percent inhibition of human Factor XI mRNA (%)

| Substance | Units | Reported Result |
| --- | --- | --- |
| 416892 (antisense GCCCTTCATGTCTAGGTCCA; 3-14-3 chimeric gapmer, wing sugar chemistry not given here, further chemistry not given here) [compound 416892] | % | 68 |
| 416825 (antisense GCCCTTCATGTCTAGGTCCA; 5-10-5 gapmer, wing sugar chemistry not given here, further chemistry not given here) [compound 416825] | % | 36 |
| 417002 (antisense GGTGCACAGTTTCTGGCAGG; 2-13-5 gapmer, wing sugar chemistry not given here, further chemistry not given here) [compound 417002] | % | 57 |
| 416826 (antisense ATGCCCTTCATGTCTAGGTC; 5-10-5 gapmer, wing sugar chemistry not given here, further chemistry not given here) [compound 416826] | % | 55 |
| 416850 (antisense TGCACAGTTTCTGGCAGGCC; 5-10-5 gapmer, wing sugar chemistry not given here, further chemistry not given here) [compound 416850] | % | 56 |
| 416864 (antisense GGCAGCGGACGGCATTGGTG; 5-10-5 gapmer, wing sugar chemistry not given here, further chemistry not given here) [compound 416864] | % | 66 |
| 416925 (antisense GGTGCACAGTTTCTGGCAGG; 3-14-3 chimeric gapmer, wing sugar chemistry not given here, further chemistry not given here) [compound 416925] | % | 59 |
| 416838 (antisense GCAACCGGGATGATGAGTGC; 5-10-5 gapmer, wing sugar chemistry not given here, further chemistry not given here) [compound 416838] | % | 59 |
| 417003 (antisense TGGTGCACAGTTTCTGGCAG; 2-13-5 gapmer, wing sugar chemistry not given here, further chemistry not given here) [compound 417003] | % | 40 |
| 416999 (antisense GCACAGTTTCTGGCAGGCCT; 2-13-5 gapmer, wing sugar chemistry not given here, further chemistry not given here) [compound 416999] | % | 60 |
| 416858 (antisense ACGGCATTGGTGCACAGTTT; 5-10-5 gapmer, wing sugar chemistry not given here, further chemistry not given here) [compound 416858] | % | 57 |

====

# System: Factor XI protein
# Experimental Details: Cynomolgus monkeys: plasma Factor XI protein ELISA (Example 30)
# Type: in vivo
# Measurement Context: 25 mg/kg s.c.; plasma ELISA; Day 45
In the oligonucleotide strings, read from the 5' end, every base follows the letter of its sugar. An asterisk marks phosphorothioate; unmarked linkages are phosphodiester. Other units and linkages are bracketed, terminal groups are in braces. A string of capitals states the bases alone. e = 2'-O-(2-methoxyethyl) (MOE); [5mC] = 5-methylcytosine; d = 2'-deoxy (DNA)
Inhibition of Factor XI protein relative to the PBS control values by entry
Measure Name: Inhibition of Factor XI protein relative to the PBS control (%)

| Substance | Units | Reported Result |
| --- | --- | --- |
| 449707 (antisense e[5mC]*eA*e[5mC]*eA*dG*dT*dT*dT*d[5mC]*dT*dG*dG*e[5mC]*eA*eG*eG) [compound 449707] | % | 35 |
| 445522 (antisense eG*e[5mC]*eA*e[5mC]*eA*dG*dT*dT*dT*d[5mC]*dT*dG*dG*e[5mC]*eA*eG*eG*e[5mC]) [compound 445522] | % | 77 |
| 449711 (antisense eA*e[5mC]*dA*dG*dT*dT*dT*d[5mC]*dT*dG*dG*d[5mC]*eA*eG) [compound 449711] | % | 4 |
| 449710 (antisense e[5mC]*eA*e[5mC]*dA*dG*dT*dT*dT*d[5mC]*dT*dG*dG*d[5mC]*eA*eG*eG) [compound 449710] | % | 23 |
| 449709 (antisense eG*e[5mC]*eA*e[5mC]*dA*dG*dT*dT*dT*d[5mC]*dT*dG*dG*d[5mC]*eA*eG*eG*e[5mC]) [compound 449709] | % | 48 |
| 416850 (antisense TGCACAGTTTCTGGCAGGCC; 5-10-5 gapmer, wing sugar chemistry not given here, further chemistry not given here) [compound 416850] | % | 53 |
| 445531 (antisense eG*eG*e[5mC]*eA*eT*dT*dG*dG*dT*dG*d[5mC]*dA*d[5mC]*eA*eG*eT*eT*eT) [compound 445531] | % | 32 |
| 416858 (antisense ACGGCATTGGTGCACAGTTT; 5-10-5 gapmer, wing sugar chemistry not given here, further chemistry not given here) [compound 416858] | % | 79 |
| 449708 (antisense eA*e[5mC]*eA*dG*dT*dT*dT*d[5mC]*dT*dG*dG*e[5mC]*eA*eG) [compound 449708] | % | 2 |

====

# Test system: human Factor XI mRNA
# Experimental Details: Dose-dependent inhibition in HepB3 cells, electroporation (Example 7)
# Format: cell-based
# Measurement Context: 1111.11 nM, approx. 16 h
Examples of substances with documented percent inhibition of human Factor XI mRNA follow.
Measure Name: percent inhibition of human Factor XI mRNA (%)

| Substance | Reported Result |
| --- | --- |
| 416825 (antisense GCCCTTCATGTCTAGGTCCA; 5-10-5 gapmer, wing sugar chemistry not given here, further chemistry not given here) [compound 416825] | 75 |
| 416925 (antisense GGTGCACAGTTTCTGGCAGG; 3-14-3 chimeric gapmer, wing sugar chemistry not given here, further chemistry not given here) [compound 416925] | 73 |
| 416826 (antisense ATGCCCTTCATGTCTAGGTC; 5-10-5 gapmer, wing sugar chemistry not given here, further chemistry not given here) [compound 416826] | 61 |

====

# Experimental Details: Tolerability in Sprague-Dawley rats: kidney function (Example 23)
# Assay type: in vivo
# Measurement Context: plasma

| Ordered Residues | BUN |
| --- | --- |
| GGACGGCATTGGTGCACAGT (antisense; all C 5-methyl, all phosphorothioate, sugars by position not given here; MOE gapmer, 5-10-5) [ISIS 413482, 5-10-5 MOE gapmer] | 23 mg/dL |
| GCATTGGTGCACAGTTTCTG (antisense; all C 5-methyl, all phosphorothioate, sugars by position not given here; MOE gapmer, 5-10-5) [ISIS 412224, 5-10-5 MOE gapmer] | 24 mg/dL |
| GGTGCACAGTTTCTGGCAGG (all C 5-methyl, all phosphorothioate, sugars by position not given here; MOE gapmer) [ISIS 413481, 5-10-5 MOE gapmer] | 26 mg/dL |
| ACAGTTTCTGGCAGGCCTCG (antisense; all C 5-methyl, all phosphorothioate, sugars by position not given here; MOE gapmer, 5-10-5) [ISIS 412223, 5-10-5 MOE gapmer] | 24 mg/dL |
| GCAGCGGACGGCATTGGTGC (antisense; all C 5-methyl, all phosphorothioate, sugars by position not given here; MOE gapmer, 5-10-5) [ISIS 412225, 5-10-5 MOE gapmer] | 23 mg/dL |

Values from patent US20120083522A1
